conditions: Crystal; DTA
assay.metric: Normal melting temperature (°C)
Give bare numbers, in °C.

# example entries with known answers
compound	units.of.measure	Normal melting temperature
CC[N+](CC)(CC)CC.F[P-](F)(F)(F)(F)F [tetraethylammonium hexafluorophosphate]	°C	77.10
CCCCCC[N+](CC)(CC)CC.[F][Sb-]([F])([F])([F])([F])[F] [N,N,N-triethyl-N-hexylammonium hexafluoroantimonate]	°C	174.00

Each compound below has a recorded value; state its Normal melting temperature.
1. CCCCCC[N+](CC)(CC)CC.F[B-](F)(F)F [N,N,N-triethyl-N-hexylammonium tetrafluoroborate]
2. CC[N+](CC)(CC)CC.F[B-](F)(F)F [tetraethylammonium tetrafluoroborate]
3. CCCCCCCC[N+](CC)(CC)CC.F[B-](F)(F)F [N,N,N-triethyl-N-octylammonium tetrafluoroborate]
4. CCCCCC[N+](CC)(CC)CC.F[P-](F)(F)(F)(F)F [N,N,N-triethyl-N-hexylammonium hexafluorophosphate]

[88.20, 71.40, 101.40, 161.60]
